- test description: MM1S cell viability effects, profiling panel, calcein-AM fluorescence, 48 h, basal (AID 1165);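 also: viability of MM1S multiple myeloma cells under basal unstimulated conditions; test concentration not given here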
- test settings: higher = more signal
assay readout: z-score
Answers are plain numbers.

Sample records with z-score:
- line notation: "COCCOC(=O)N1C(=O)[C@@]2(c3cc(C#CCNC(N)=O)ccc31)[C@H](C(=O)N1CCc3cc(OC)c(OC)cc3C1)[C@H]1C(=O)O[C@H](c3ccccc3)[C@H](c3ccccc3)N1[C@@H]2c1ccc(OCCO)cc1"
  z-score: 0.128
- line notation: "CCCC[C@H]1OB(O)C[C@H]2C1=C(C)C[C@H]1C(=O)N(Cc3ccccc3)C(=O)[C@H]12"
  z-score: -0.551

The record that follows has no z-score shown yet.
Exercise: For `C=CCNC(=O)[C@H]1[C@@H]2C(=O)O[C@@H](c3ccccc3)[C@@H](c3ccccc3)N2[C@@H](c2ccc(O)cc2)[C@]12C(=O)N(C(=O)OCCOC)c1ccc(C#CCCO)cc12` , write its z-score.
Solution: -0.0589
